meta.source: PubChem BioAssay (NCI)

Test system: OVCAR-3 ovarian
Test: NCI tumour cell line growth inhibition, 48 h
Documented TGI across a set of compounds
Provide the reading as a plain figure in µM.

Take a look at these entries with their results.
COS(=O)c1cc(Cl)cc(Cl)c1OC(=O)CSSCC(=O)Oc1c(Cl)cc(Cl)cc1S(=O)OC (stereo not given) :: 86.4
O=C(CI)NC(=O)NC(=O)NCc1ccccc1 :: 3.37

Problem: Give TGI only, for COC1=C(OC)C(=O)C(Cc2c(Cl)nc3sccn23)=C(C)C1=O , using OVCAR-3 ovarian data.
Solution: 25.8

----------
Tested on: NCI-H226 lung
Assay: NCI tumour cell line growth inhibition, 48 h; in the data active means GI50 below about 0.43 µM; inactive means the rest
A correct response names exactly one class from 1.0 (active), 0.0 (inactive)

Worked examples follow.
CCOC(=O)c1cn(C)c2c(OC)c3ccccc3c(OC)c2c1=O :: 0.0
O=C1Nc2ccc(-c3cccnc3)cc2/C1=C/c1cc(Br)c(O)c(Br)c1 :: 0.0
CN(C)CCNC(=O)Nc1ccc(N(C)c2ccnc(Nc3ccc(CS(C)(=O)=O)cc3)n2)cc1 :: 0.0
O=C1c2ccccc2-c2c1c1ccccc1c(=O)n2CCCNCCNCCCn1c2c(c3ccccc3c1=O)C(=O)c1ccccc1-2 :: 1.0
O=C(Nc1nc2ccc(S(=O)(=O)Nc3ccc(C4(C(F)(F)F)CC4)cc3)cc2[nH]1)c1cnccn1 :: 0.0

Consider the record given below.
Problem: Hi, do you know how NC1=NC(c2ccccc2Cl)c2c(n[nH]c2N)N1 (stereo unspecified) came out in this test?
Solution: 0.0

----------
Test system: OVCAR-5 ovarian
Assay: NCI tumour cell line growth inhibition, 48 h; in the data active means GI50 below about 0.43 µM; inactive means the rest
A correct response names exactly one class from true (1) for active, false (0) for inactive

C/C(=C/CCC(C)[C@@H]1CC[C@]2(C)C3=C(CC[C@@]12C)[C@@]1(C)CCC(=O)C(C)(C)[C@@H]1CC3)C(=O)O (stereo not given in full) :: false (0)
Nc1ncnc2c1c(-c1ccc(Oc3ccccc3)cc1)nn2CC1SSCC1O (stereo not given) :: false (0)

Problem: Hi, do you know how OCCNc1nc2ccccc2c2[nH]c3ccccc3c12 came out in this test?
Solution: false (0)

Problem: Hi, do you know how CO[C@H]1C(=O)[C@]2(C)[C@@H](OC)C[C@H]3OC[C@@]3(OC(C)=O)[C@H]2[C@H](OC(=O)c2ccccc2)[C@]2(O)C[C@H](OC(=O)[C@H](O)[C@@H](NC(=O)OC(C)(C)C)c3ccccc3)C(C)=C1C2(C)C came out in this test?
Solution: true (1)

Problem: Hi, do you know how COc1cccc(-c2cc(=O)c3cc(N4CCN(C)CC4)ccc3[nH]2)c1 came out in this test?
Solution: false (0)

Problem: Hi, do you know how O=C(Nc1ccc(-n2cc(-c3ccncc3)c(-c3ccc(O)c(Cl)c3)n2)cc1)Nc1cc(C(F)(F)F)cc(C(F)(F)F)c1 came out in this test?
Solution: false (0)

Problem: Hi, do you know how O=C(Nc1ccc(-n2cc(-c3ccncc3)c(-c3ccc(Cl)c(O)c3)n2)cc1)c1cc(C(F)(F)F)cc(C(F)(F)F)c1 came out in this test?
Solution: false (0)

Problem: Hi, do you know how O=C1Nc2ccc(-c3cccnc3)cc2/C1=C/c1cc(Br)c(O)c(Br)c1 came out in this test?
Solution: false (0)

Problem: Hi, do you know how CCc1ccc(Oc2c(-c3ccc(OCc4ccc(Cl)cc4)cc3O)nn(C)c2C(F)(F)F)cc1 came out in this test?
Solution: false (0)

Problem: Hi, do you know how Cc1ccc(C(=O)Nc2ccc(Oc3cc4cnn(C)c4cc3-c3cn[nH]c3)c(F)c2)c(=O)n1-c1ccc(F)cc1 came out in this test?
Solution: false (0)

----------
Documented TGI across a set of molecules
System: UACC-62 melanoma
Experiment: NCI tumour cell line growth inhibition, 48 h

O=[N+]([O-])/C=C/c1cc(Cl)c(/C=C/[N+](=O)[O-])cc1Cl :: 4.34 µM
Nc1nc(-c2ccccc2)c(CC(=O)O)s1 :: > 100 µM
N=C(N)n1cc(/C=N/N=C(N)N)cn1 :: > 100 µM

Here is the next item to consider.
Problem: Assign TGI to the following record: O=C(O)c1ccccc1C(=O)c1ccco1
Solution: > 100 µM

----------
Tested on: UO-31 renal
Assay: NCI tumour cell line growth inhibition, 48 h
Documented TGI across a set of compounds
Provide the reading as a plain figure in µM.

Take a look at these entries with their results.
C[n+]1c2ccccc2n2c3ccccc3c(NCCCn3ccnc3)c(C#N)c21 :: 42.6
CCCCCCCCCCCCCCCC(=O)OCC1OC(n2cc(F)c(=O)[nH]c2=O)C(NC(=O)OCc2ccccc2)C(O)C1O (stereo not given) :: 35.2
CC(=O)Oc1cc2c(cc1OCC(F)(F)F)[C@H]1CC[C@]3(C)[C@@H](OC(C)=O)CC[C@H]3[C@@H]1CC2=O :: 42.2

Here is the next item to consider.
Problem: Assign TGI to the following record: NC(=O)c1nc(-c2c(F)cccc2Cl)oc1Nc1ccc(C(=O)N2CCOCC2)cc1
Solution: 25.8

----------
System: KM12 colon
Experiment: NCI tumour cell line growth inhibition, 48 h
Documented TGI across a set of compounds
Provide the reading as a plain figure in µM.

Take a look at these entries with their results.
O=C(Nc1nc2ccc(S(=O)(=O)Nc3ccc(C4(C(F)(F)F)CC4)cc3)cc2[nH]1)c1cnccn1 :: 14.4
CC(=O)Oc1cc2c(cc1OCC(F)(F)F)[C@H]1CC[C@]3(C)[C@@H](OC(C)=O)CC[C@H]3[C@@H]1CC2=O :: 74.9
COc1cccc(/C=N/[N-]C(N)=O)c1[O-].[Cu+2].[OH3+] :: 28

Here is the next item to consider.
Problem: Assign TGI to the following record: C[n+]1c2ccccc2n2c3ccccc3c(NCCCn3ccnc3)c(C#N)c21
Solution: 17.7

----------
Documented TGI across a set of molecules
System: HOP-18 NSCLC
Assay: NCI tumour cell line growth inhibition, 48 h
Provide the reading as a plain figure in µM.

Take a look at these entries with their results.
COCc1cc2c(s1)C(=O)C1=C(C2=O)C2(C=C(Br)C(=O)C(Br)=C2)CCN1 :: 28.4
CC1CCCP(=O)(c2ccccc2)CCC1 (centres undefined) :: 96.4
CCCCCCCCCCCCCCCC(=O)OCC1OC(n2cc(F)c(=O)[nH]c2=O)C(NC(=O)OCc2ccccc2)C(O)C1O (centres undefined) :: 37.8

Here is the next item to consider.
Problem: Assign TGI to the following record: CC[n+]1c(-c2ccccc2)c2cc(N)ccc2c2ccc(N)cc21
Solution: 18.3

----------
System: M14 melanoma
Assay: NCI tumour cell line growth inhibition, 48 h
MEASURED_QUANTITY: TGI

Cc1n[nH]c(=O)n1-n1cccc1 :: > 100 µM
CCC(Oc1ccc(OC)c2c1C(=O)CCC2)C(=O)O (stereo not given) :: > 100 µM
CN(C)C1C(=O)C(C(N)=O)=C(O)C2(O)C(=O)C3=C(O)c4c(O)cccc4C(C)(O)C3CC12.[Cl][Sb]([Cl])[Cl] (stereo not given) :: 16.6 µM
CC(C)(C)C(=O)c1c(O)c2ccccc2c2ccccc2c1=O :: > 100 µM
CC(=O)c1c(-c2ccc(Cl)cc2)c(C#N)c(=S)n(C2OC(CO)C(O)C(O)C2O)c1C (stereo not given) :: > 100 µM

Problem: Give TGI only, for O=C(N/N=C/c1ccccc1)c1c(F)c(F)c(F)c(F)c1F , using M14 melanoma data.
Solution: > 100 µM

Problem: Give TGI only, for COc1cc2c(cc1OC)C1=C(C=O)c3ccc(OC)c(OC)c3C(O)N1CC2 (stereo not given) , using M14 melanoma data.
Solution: 78.1 µM

----------
Tested on: OVCAR-4 ovarian
Experiment: NCI tumour cell line growth inhibition, 48 h
MEASURED_QUANTITY: GI50

Take a look at these entries with their results.
C/C(=C/CCC(C)[C@@H]1CC[C@]2(C)C3=C(CC[C@@]12C)[C@@]1(C)CCC(=O)C(C)(C)[C@@H]1CC3)C(=O)O (stereo partly drawn) :: 1270 nM
COc1ccc(-c2cnc(-c3ccncc3-c3cccc(OC)c3)o2)cc1 :: 677 nM

Here is the next item to consider.
Problem: Give GI50 only, for Nc1c(C(=O)Nc2ccccc2)sc2nc3c(cc12)C(=O)CCC3 , using OVCAR-4 ovarian data.
Solution: 810 nM

----------
Tested on: OVCAR-3 ovarian
Assay: NCI tumour cell line growth inhibition, 48 h
MEASURED_QUANTITY: TGI

O=[N+]([O-])c1cccnc1S(=O)(=O)c1ccccc1 :: 3.84 µM
CN1C(c2ccccc2)CC(O)CC1c1ccccc1 (stereo unspecified) :: > 100 µM
Cc1cc(-c2ccc(N=Nc3ccc4c(S(=O)(=O)O)cc(S(=O)(=O)O)c(N)c4c3O)c(C)c2)ccc1N=Nc1ccc2c(S(=O)(=O)O)cc(S(=O)(=O)O)c(N)c2c1O :: > 100 µM
Cc1ccc(S(=O)(=O)OCCN(CCOS(=O)(=O)c2ccc(C)cc2)c2ccc(C=O)cc2)cc1 :: 56 µM
Nc1nc(Cl)c2ncn(Cc3ccc(C45CC6CC(CC(C6)C4)C5)c(OCc4cc(F)c(F)cc4F)c3)c2n1 :: 14.7 µM

Problem: Give TGI only, for CCCC(O)[C@@]1(CC)CC(C)C(O)(C2(C)C[C@H](C)[C@@H](C(CC)C(=O)C(C)[C@@H](O)[C@H](C)C3OC(O)(C(CC)C(=O)O)[C@@H](C)C(O)C3CC)O2)O1 (stereo partly specified) , using OVCAR-3 ovarian data.
Solution: 2.62 µM

Problem: Give TGI only, for Cn1c(CO)ccc1-c1ccc(-c2ccc(CO)[se]2)[se]1 , using OVCAR-3 ovarian data.
Solution: 26.7 µM

Problem: Give TGI only, for O=C1Nc2noc(=O)nc2NO1 , using OVCAR-3 ovarian data.
Solution: > 200 µM

Problem: Give TGI only, for COC(=O)C1CCC(C)CC1=O (stereo unspecified) , using OVCAR-3 ovarian data.
Solution: > 100 µM

Problem: Give TGI only, for CC(C)=CC1C(C(=O)OCc2cc3c(cc2Cl)OCO3)C1(C)C (stereo unspecified) , using OVCAR-3 ovarian data.
Solution: > 100 µM
